Source: PubChem BioAssay

assay procedure: ovarian cancer cell viability with rucaparib, profiling panel, oncology-focused library, rucaparib conditional (AID 1508598)
run parameters: patient-derived ovarian cancer cells, CellTiter-Glo viability, 144 h; at 0.00122 µM; OCI-C5x cells; without rucaparib
Active and inactive are the calls of the source.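 How the source made its calls: active means normalized viability below 100% at a tested concentration; inactive means the rest.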
Just give me one of these, please: TRUE for active, FALSE for inactive

Solved entries:
Cc1c(N)nc([C@H](CC(N)=O)NC[C@@H](N)C(N)=O)nc1C(=O)N[C@H](C(=O)N[C@@H](C)[C@H](O)[C@@H](C)C(=O)N[C@@H](C(=O)NCCc1nc(-c2nc(C(=O)NCCC[S+](C)C)cs2)cs1)[C@@H](C)O)C(O[C@H]1O[C@H](CO)[C@H](O)[C@@H](O)[C@H]1O[C@H]1O[C@H](CO)[C@@H](O)[C@H](OC(N)=O)[C@@H]1O)c1cnc[nH]1 (stereo partly drawn): FALSE
CC(C)[C@@]12O[C@@H]1[C@@H]1O[C@]13[C@]1(O[C@@H]1C[C@@H]1C4=C(CC[C@@]13C)C(=O)OC4)[C@@H]2O: TRUE

We next turn to a different compound, shown below.
// query Write down the call the test reported for this compound. Item: "C/C(=C\c1csc(C)n1)[C@H]1C[C@@H]2O[C@]2(C)CCC[C@H](C)[C@H](O)[C@@H](C)C(=O)C(C)(C)[C@H](O)CC(=O)O1"
// result TRUE

###

assay procedure: inhibitors of polyQ protein aggregation (AID 1604)
run parameters: polyglutamine-induced protein aggregation inhibition assay; stronger effect = higher value; concentration not given here
Entries and their measured inhibition of aggregation follow.
Expressed in %, but write only the number.

COc1ccc(Cc2nccc3cc(OC)c(OC)cc23)cc1OC: 46.4
CCC(C)C(=O)O[C@H]1[C@H](O)C2C(CN3CC(C)CCC3[C@@]2(C)O)C2C[C@]34O[C@]5(O)C(OC(=O)C(C)(O)C(C)O)CC[C@@]3(C)C5C(OC(C)=O)[C@@H](OC(C)=O)C4[C@@]21O (stereo partly drawn): 1.96
O=C1CN=C(c2ccccc2Cl)c2cc([N+](=O)[O-])ccc2N1: 52.4
C[CH2][Hg][S]c1ccccc1C(=O)O: 18.2
Oc1ccc2c3c1OC1[C@@H](O)CC[C@@]4(O)[C@@H](C2)N(CC2CCC2)CC[C@]314 (stereo partly drawn): 52.2

Record "NCCc1cc(O)c(O)cc1O" , field inhibition of aggregation: 55.6

Notebook: C/C=C(\C)C(=O)O[C@H]1C[C@@H](OC(C)=O)[C@@]2(C(=O)OC)CO[C@@H]3C2[C@]12CO[C@](O)(C(=O)OC)[C@H]2[C@](C)(C12O[C@@]1(C)[C@H]1C[C@@H]2OC2OC=C[C@@]21O)[C@@H]3O (stereo partly drawn) , inhibition of aggregation read as 72.4

Looking up "O=[N+]([O-])c1cc(O)c(O)c([N+](=O)[O-])c1" , I found its inhibition of aggregation recorded as 80.3

###

Each item that follows carries a reported activity remaining.
Tested on: Aerobactin synthetase IucA (Klebsiella pneumoniae hvKP1)
assay procedure: Biochemical IucA enzyme inhibition primary screen of the Spectrum library (AID 1346200);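 further: 100% = wells without compound and 0% = wells lacking enzyme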
run parameters: malachite green pyrophosphate, A620, at 8 µM, stronger effect = lower value
// return numeric value only (unit: %, not printed)

CC1(C)O[C@@H]2[C@@H](CO[C@@]3(COS(N)(=O)=O)OC(C)(C)O[C@@H]23)O1: 115
CC1=C2C(=CO[C@H](C)[C@H]2C)C(=O)C(C(=O)O)=C1O: 94.3
CC1OC(O[C@H]2/C=C/C=C/C=C/C=C/C=C/C=C/C=C/[C@H](C)[C@@H](O)[C@@H](C)[C@H](C)OC(=O)CC(O)CC(O)CCC(O)C(O)CC(O)CC3(O)C[C@H](O)C(C(=O)O)C(C2)O3)C(O)[C@H](N)C1O (stereo not given in full): 89.3
COc1ccc2ccc(=O)oc2c1: 114

For this compound ( "CCOc1ccc(NC(C)=O)cc1" ), measured activity remaining is 97.1

###

assay procedure: glucagon-like peptide 1 release enhancers, primary assay, NCI-H716 cell line, NPC library (AID 1117341)
run parameters: NCI-H716 cells, at 10 µM
The source made the active and inactive calls.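 The calls were made as follows: active = compound raises GLP1 secretion from the human gut endocrine cells, with no numeric limit stated; inactive = the rest.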
Parameter call: string, one of active, inactive

Consider the worked cases shown below.
CC(C)=C[C@@H]1[C@@H](C(=O)OCc2coc(Cc3ccccc3)c2)C1(C)C: inactive
C[C@@H]1O[C@@H](O[C@H]2C[C@@H](O)[C@]3(CO)[C@H]4[C@H](O)C[C@]5(C)[C@@H](C6=CC(=O)OC6)CC[C@]5(O)[C@@H]4CC[C@]3(O)C2)[C@H](O)[C@H](O)[C@H]1O: inactive
CN[C@@H]1C[C@@H](c2ccc(Cl)c(Cl)c2)c2ccccc21: inactive
O=C(O)c1nn(Cc2ccc(Cl)cc2Cl)c2ccccc12: inactive
COc1cc(CC#N)cc(OC)c1OC: inactive

// query Outcome logged for "CN[C@@H](C)[C@H](O)c1ccccc1" in this assay:
// result inactive

// query Please indicate how the test categorized "NCc1cccnc1" .
// result inactive

// query So what was the verdict on "C[C@]12CC[C@H]3[C@@H](CC=C4C[C@@H](O)CC[C@@]43C)[C@@H]1CC[C@@H]2O" in this test?
// result inactive

###

assay procedure: sensitizers of A549 cells to miR-34 induction, primary screen, imaging, A549 dox-inducible miR-34, nuclei and caspase counts (AID 1347080)
run parameters: A549 miR-34 inducible, Hoechst nuclei count, 48 h; stronger effect = lower value
Consider the cut-off 1. If the recorded fold change is strictly smaller, the label is T; if not, the label is F.

These solved cases illustrate the format of a correct answer.
C[N+](C)(C)CC(=O)[O-]: T
CS(=O)(=O)Nc1ccc(Cc2noc(-c3ccc4[nH]cc(CCN)c4c3)n2)cc1: T
COc1ccc(CCN)cc1OC: F

// query Item "CC(C)C[C@@H](CN)CC(=O)O" : fold change beneath 1, strictly?
// result T

// query I wonder whether CCN1C[C@]2(OC(=O)c3ccccc3NC(C)=O)CCC(OC)[C@]34C1C(C[C@H]23)[C@@]1(O)CC(OC)[C@H]2C[C@H]4[C@]1(O)C2OC (stereo not given in full) has fold change below 1. Can you tell?
// result T

// query State whether 1 exceeds fold change recorded for CCN1C[C@@]2(COC)C3[C@@H](OC)[C@H]4[C@@H]1[C@@]3(C1C[C@@]3(O)[C@H](OC(=O)c5ccccc5)C1[C@]4(OC(C)=O)[C@@H](O)[C@H]3OC)[C@@H](OC)C[C@H]2O (stereo not given in full) .
// result T

###

assay procedure: sensitizers of A549 cells to miR-34 induction, primary screen, imaging, A549 dox-inducible miR-34, nuclei and caspase counts (AID 1347080)
run parameters: A549 miR-34 inducible, Hoechst nuclei count, 48 h; measured here: total cells without miR-34 induction
metric name: cell count

CCCN1CCC[C@@H]2Cc3nc(N)ncc3C[C@H]21: 10200

Just so you know, measured cell count for "CN(C)C(=S)SSC(=S)N(C)C" came out at 10600

###

assay procedure: viability rescue of complex I mutant cybrids, primary screen, cell-based, galactose medium, ATP luminescence (AID 1645843);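 further: positive z means more ATP and so rescue of galactose-driven cybrid death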
run parameters: complex I mutant cybrid cells, 72 h, stronger effect = higher value
metric name: z-score
# print the numeric value only

Study these solved cases before continuing.
Cc1ncc(CNC(=O)N(CCCl)N=O)c(N)n1: -0.62
Cc1[nH]c2ccc(Cl)cc2c1C1=CCNCC1: -0.42
C=CCN1CCC23c4c5ccc(O)c4O[C@H]2C(=O)CC[C@@]3(O)C1C5 (stereo partly specified): 0.37

Measured z-score, CN1C(=O)COc2c(C(=O)NC3CN4CCC3CC4)cc(Cl)cc21 (stereo unspecified) : 0.255

Per the record, NC(=O)c1ccc(OCC(O)CN2CC=C(c3ccc(F)cc3)CC2)cc1 (stereo unspecified) has z-score of -0.85

For reference, reported z-score for "C/C=C(/C)C(=O)O[C@H]1C(C)=C2[C@H]([C@@H]1OC(=O)CCCCCCC)[C@@](C)(OC(C)=O)C[C@H](OC(=O)CCC)[C@@]1(O)[C@H]2OC(=O)[C@@]1(C)O" stands at -1.38

###

experimental system: L-lactate dehydrogenase (Plasmodium falciparum (isolate CDC / Honduras))
assay procedure: PfLDH activity inhibition – cell lysate, 3D7 strain, counter-screen for P. falciparum growth inhibition project (AID 2304);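 further: 0% = vehicle and 100% = reference inhibitor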
run parameters: P. falciparum 3D7 crude extract, LDH APAD/NBT absorbance; at 2 µM; stronger effect = higher value
Each entry below carries its recorded inhibition.
Quick note: give the figure in %, leave out the unit.

Worked cases, answers included:
COc1cccc(CCNC(C)Cc2ccc(OCCCCOc3ccccc3)cc2)c1 (stereo not given): 5
CCC1CN2CCc3cc(OC)c(OC)cc3C2CC1CC1NCCc2c1[nH]c1ccc(O)cc21 (stereo not given): -7
OC(CNC1CCCCCC1)c1ccc(Cl)c(Cl)c1 (stereo not given): -3
O=C(NC1CCC(CN2CCC(c3c[nH]c4ccccc34)CC2)CC1)c1cnn(-c2ccccc2)c1-c1ccccc1Cl (stereo not given): -6

Now take the following compound into account.
Record "CC[C@H]1CN2CC[C@@H]1C[C@H]2[C@H](O)c1cc(N2CCC(C(N)=O)CC2)nc2ccc(OC)cc12" . Reported inhibition: -5
